melting point overview

See these solved cases before continuing.
* COc1ccccc1-c1ccc(C[C@H](NC(=O)c2c(Cl)cccc2Cl)C(=O)O)cc1C(C)=O [Example 71] | 87 to 89 °C
* CCCCC(O)c1cc(C[C@H](NC(=O)c2c(Cl)cccc2Cl)C(=O)O)ccc1-c1ccccc1OC (stereo partly shown) [Example 342] | 158 to 159 °C
* Cc1cccc(C)c1-c1ccc(C[C@H](NC(=O)c2c(Cl)cccc2Cl)C(=O)O)cc1 [Example 145] | 200 to 201 °C

# next compound below
melting point in this record for CCC(O)c1cc(C[C@H](NC(=O)c2c(Cl)cccc2Cl)C(=O)O)ccc1-c1ccccc1OC (stereo partly shown) [Example 341] : 117 to 119 °C
